// reported viscosity for each item listed
Test: xn = mol fraction of the nth substance listed
Settings: 298.15 K; 100 kPa; Liquid; Cone and plate viscometry; x1 = 0.499
The response must be a number in mPa·s with no trailing unit.

Examples from the recorded data:
CCCCCCn1cc[n+](C)c1C.O=[N+]([O-])c1cn[n-]c1 [1-hexyl-2,3-dimethylimidazolium 4-nitropyrazolide] + CCCCCCCC[P+](CC)(CC)CC.O=S(=O)([N-]S(=O)(=O)C(F)(F)F)C(F)(F)F: 209
CCCCCCCC[P+](CC)(CC)CC.O=[N+]([O-])c1cn[n-]c1 [triethyloctylphosphonium 4-nitropyrazolide] + CCCCCC[n+]1ccn(C)c1.O=S(=O)([N-]S(=O)(=O)C(F)(F)F)C(F)(F)F: 164

Kindly indicate its recorded viscosity. Item: CC(=O)[O-].CCCCCCCCCCCCCC[P+](CCCCCC)(CCCCCC)CCCCCC [trihexyl(tetradecyl)phosphonium acetate] + CCCCCC[n+]1ccn(C)c1.O=S(=O)([N-]S(=O)(=O)C(F)(F)F)C(F)(F)F
440

Kindly indicate its recorded viscosity. Item: CCCCCCn1cc[n+](C)c1.O=[N+]([O-])c1cn[n-]c1 [1-hexyl-3-methylimidazolium 4-nitropyrazolide] + CCCCCCCC[P+](CC)(CC)CC.O=S(=O)([N-]S(=O)(=O)C(F)(F)F)C(F)(F)F
154

Kindly indicate its recorded viscosity. Item: CCCCCCCCCC[P+](CC)(CC)CC.O=[N+]([O-])c1cn[n-]c1 [decyltriethylphosphonium 4-nitropyrazolide] + CC[P+](CC)(CC)COCCOC.O=S(=O)([N-]S(=O)(=O)C(F)(F)F)C(F)(F)F
101

Kindly indicate its recorded viscosity. Item: CCCCCCn1cc[n+](C)c1.N#Cc1ccc[n-]1 [1-hexyl-3-methylimidazolium 2-cyanopyrrolide] + CCCCCCCCCCCCCC[P+](CCCCCC)(CCCCCC)CCCCCC.O=S(=O)([N-]S(=O)(=O)C(F)(F)F)C(F)(F)F
292

* * *

Assay: xn = mol fraction of the nth substance listed
Conditions: 293.15 K; 100 kPa; Liquid; Cone and plate viscometry; x1 = 0.2
endpoint: viscosity (mPa·s)
The response must be a number in mPa·s with no trailing unit.

Examples from the recorded data:
CCCCCCCCCCCCCC[P+](CCCCCC)(CCCCCC)CCCCCC.O=[N+]([O-])c1cn[n-]c1 [trihexyl(tetradecyl)phosphonium 4-nitropyrazolide] + CCCCCC[n+]1ccn(C)c1.O=S(=O)([N-]S(=O)(=O)C(F)(F)F)C(F)(F)F: 191
CCCCCCn1cc[n+](C)c1.N#Cc1ccc[n-]1 [1-hexyl-3-methylimidazolium 2-cyanopyrrolide] + CCCCCCCCCCCCCC[P+](CCCCCC)(CCCCCC)CCCCCC.O=S(=O)([N-]S(=O)(=O)C(F)(F)F)C(F)(F)F: 435
CCCCCCCCCCCCCC[P+](CCCCCC)(CCCCCC)CCCCCC.N#Cc1ccc[n-]1 [trihexyl(tetradecyl)phosphonium 2-cyanopyrrolide] + CCCCCC[n+]1ccn(C)c1.O=S(=O)([N-]S(=O)(=O)C(F)(F)F)C(F)(F)F: 190

Kindly indicate its recorded viscosity. Item: CCCCCCCCCCCCCC[P+](CCCCCC)(CCCCCC)CCCCCC.O=S(=O)([N-]S(=O)(=O)C(F)(F)F)C(F)(F)F + CCCCCC[n+]1ccn(C)c1.O=S(=O)([N-]S(=O)(=O)C(F)(F)F)C(F)(F)F
153

* * *

Experiment: xn = mol fraction of the nth substance listed
Settings: 288.15 K; 100 kPa; Liquid; Cone and plate viscometry; x1 = 0.3
I would appreciate it if you labelled entries Satisfied when viscosity is 400 mPa·s or higher, otherwise Not satisfied.

CC(=O)[O-].CCCCCCCCCCCCCC[P+](CCCCCC)(CCCCCC)CCCCCC [trihexyl(tetradecyl)phosphonium acetate] + CCCCCC[n+]1ccn(C)c1.O=S(=O)([N-]S(=O)(=O)C(F)(F)F)C(F)(F)F: Satisfied
CCCCCCCCCCCCCC[P+](CCCCCC)(CCCCCC)CCCCCC.N#Cc1ccc[n-]1 [trihexyl(tetradecyl)phosphonium 2-cyanopyrrolide] + CCCCCC[n+]1ccn(C)c1.O=S(=O)([N-]S(=O)(=O)C(F)(F)F)C(F)(F)F: Not satisfied
CCCCCCn1cc[n+](C)c1.N#Cc1ccc[n-]1 [1-hexyl-3-methylimidazolium 2-cyanopyrrolide] + CCCCCCCCCCCCCC[P+](CCCCCC)(CCCCCC)CCCCCC.O=S(=O)([N-]S(=O)(=O)C(F)(F)F)C(F)(F)F: Satisfied

Pending compound:
Given CCCCCCCCCCCCCC[P+](CCCCCC)(CCCCCC)CCCCCC.N#Cc1ccc[n-]1 [trihexyl(tetradecyl)phosphonium 2-cyanopyrrolide] + CCCCCCn1cc[n+](C)c1C.O=S(=O)([N-]S(=O)(=O)C(F)(F)F)C(F)(F)F , state whether its viscosity is at least 400 mPa·s.
Satisfied

* * *

Test: xn = mol fraction of the nth substance listed
Settings: 303.15 K; 100 kPa; Liquid; Cone and plate viscometry; x1 = 0.1
endpoint: viscosity (mPa·s)
The response must be a number in mPa·s with no trailing unit.

Examples from the recorded data:
CCCCCCCCCCCCCC[P+](CCCCCC)(CCCCCC)CCCCCC.N#Cc1ccc[n-]1 [trihexyl(tetradecyl)phosphonium 2-cyanopyrrolide] + CCCCCCn1cc[n+](C)c1C.O=S(=O)([N-]S(=O)(=O)C(F)(F)F)C(F)(F)F: 131
CCCCCCn1cc[n+](C)c1.N#Cc1ccc[n-]1 [1-hexyl-3-methylimidazolium 2-cyanopyrrolide] + CCCCCCCCCCCCCC[P+](CCCCCC)(CCCCCC)CCCCCC.O=S(=O)([N-]S(=O)(=O)C(F)(F)F)C(F)(F)F: 229
CCCCCCn1cc[n+](C)c1.O=[N+]([O-])c1cn[n-]c1 [1-hexyl-3-methylimidazolium 4-nitropyrazolide] + CCCCCCCC[P+](CC)(CC)CC.O=S(=O)([N-]S(=O)(=O)C(F)(F)F)C(F)(F)F: 90

We now examine a further molecule.
Kindly indicate its recorded viscosity. Item: CCCCCCCCCCCCCC[P+](CCCCCC)(CCCCCC)CCCCCC.N#Cc1ccc[n-]1 [trihexyl(tetradecyl)phosphonium 2-cyanopyrrolide] + CCCCCC[n+]1ccn(C)c1.O=S(=O)([N-]S(=O)(=O)C(F)(F)F)C(F)(F)F
80

* * *

Assay: xn = mol fraction of the nth substance listed
Conditions: 308.15 K; 100 kPa; Liquid; Cone and plate viscometry; x1 = 0.898
Numbers after ± are expanded uncertainties.
endpoint: viscosity

CCCCCCCCCCCCCC[P+](CCCCCC)(CCCCCC)CCCCCC.N#Cc1ccc[n-]1 [trihexyl(tetradecyl)phosphonium 2-cyanopyrrolide] + CCCCCC[n+]1ccn(C)c1.O=S(=O)([N-]S(=O)(=O)C(F)(F)F)C(F)(F)F: 228 ± 28 mPa·s
CCCCCCCCCCCCCC[P+](CCCCCC)(CCCCCC)CCCCCC.O=[N+]([O-])c1cn[n-]c1 [trihexyl(tetradecyl)phosphonium 4-nitropyrazolide] + CCCCCC[n+]1ccn(C)c1.O=S(=O)([N-]S(=O)(=O)C(F)(F)F)C(F)(F)F: 325 ± 41 mPa·s
CCCCCCCC[P+](CC)(CC)CC.O=[N+]([O-])c1cn[n-]c1 [triethyloctylphosphonium 4-nitropyrazolide] + CCCCCC[n+]1ccn(C)c1.O=S(=O)([N-]S(=O)(=O)C(F)(F)F)C(F)(F)F: 145 ± 18 mPa·s

We now examine a further molecule.
Kindly indicate its recorded viscosity. Item: CCCCCCn1cc[n+](C)c1C.O=[N+]([O-])c1cn[n-]c1 [1-hexyl-2,3-dimethylimidazolium 4-nitropyrazolide] + CCCCCCCCCCCCCC[P+](CCCCCC)(CCCCCC)CCCCCC.O=S(=O)([N-]S(=O)(=O)C(F)(F)F)C(F)(F)F
373 ± 47 mPa·s

* * *

// reported viscosity for each item listed
Test: xn = mol fraction of the nth substance listed
Settings: 313.15 K; 100 kPa; Liquid; Cone and plate viscometry; x1 = 0.9
The response must be a number in mPa·s with no trailing unit.

Kindly indicate its recorded viscosity. Item: CCCCCCCCCC[P+](CC)(CC)CC.O=[N+]([O-])c1cn[n-]c1 [decyltriethylphosphonium 4-nitropyrazolide] + CC[P+](CC)(CC)COCCOC.O=S(=O)([N-]S(=O)(=O)C(F)(F)F)C(F)(F)F
115

* * *

Experiment: xn = mol fraction of the nth substance listed
Details: 278.15 K; 100 kPa; Liquid; Cone and plate viscometry; x1 = 0.499
endpoint: viscosity (mPa·s)
The response must be a number in mPa·s with no trailing unit.

CC(=O)[O-].CCCCCCCCCCCCCC[P+](CCCCCC)(CCCCCC)CCCCCC [trihexyl(tetradecyl)phosphonium acetate] + CCCCCC[n+]1ccn(C)c1.O=S(=O)([N-]S(=O)(=O)C(F)(F)F)C(F)(F)F: 2057
CCCCCCn1cc[n+](C)c1C.O=[N+]([O-])c1cn[n-]c1 [1-hexyl-2,3-dimethylimidazolium 4-nitropyrazolide] + CCCCCCCC[P+](CC)(CC)CC.O=S(=O)([N-]S(=O)(=O)C(F)(F)F)C(F)(F)F: 992
CCCCCCn1cc[n+](C)c1.O=[N+]([O-])c1cn[n-]c1 [1-hexyl-3-methylimidazolium 4-nitropyrazolide] + CCCCCCCC[P+](CC)(CC)CC.O=S(=O)([N-]S(=O)(=O)C(F)(F)F)C(F)(F)F: 639
CCCCCCCCCC[P+](CC)(CC)CC.O=[N+]([O-])c1cn[n-]c1 [decyltriethylphosphonium 4-nitropyrazolide] + CC[P+](CC)(CC)COCCOC.O=S(=O)([N-]S(=O)(=O)C(F)(F)F)C(F)(F)F: 334
CCCCCCn1cc[n+](C)c1.N#Cc1ccc[n-]1 [1-hexyl-3-methylimidazolium 2-cyanopyrrolide] + CCCCCCCCCCCCCC[P+](CCCCCC)(CCCCCC)CCCCCC.O=S(=O)([N-]S(=O)(=O)C(F)(F)F)C(F)(F)F: 1275

Kindly indicate its recorded viscosity. Item: CCCCCCCC[P+](CC)(CC)CC.O=[N+]([O-])c1cn[n-]c1 [triethyloctylphosphonium 4-nitropyrazolide] + CCCCCC[n+]1ccn(C)c1.O=S(=O)([N-]S(=O)(=O)C(F)(F)F)C(F)(F)F
680
